test system: SF-268 CNS; experiment: NCI-60 one-dose screen, 48 h (100 = growth as untreated, 0 = no growth, -100 = all killed); conditions: 10 µM unless noted
This is part of a sample that, as a whole, favours compounds with a hit. Of some 83,000 tested, about 20% had one in any assay. Activity calls are given as the source filed them. The calls were made as follows: active = growth percent below 10; inactive = the rest.
REPORTED METRIC: growth

Some entries whose results are on file:
>  <MOLECULE>
O=C1c2c(O)cc(O)cc2OC(c2ccc(O)c(O)c2)C1O (centres undefined)

>  <MEASURED>
111% (inactive)

$$$$
>  <MOLECULE>
Nc1ccccc1SC1CC(=O)N(c2cccc3ccccc23)C1=O (centres undefined)

>  <MEASURED>
98.1% (inactive)

$$$$

Q: What value of growth has been recorded for this entry: CC(O)Cn1cnc2c1c(=O)n(C)c(=O)n2C (centres undefined)
A: 103% (inactive)

Q: Here is the next molecule: `N#CCCOc1ccccc1`
A: 102% (inactive)

###

test system: SW-620 colon; assay: NCI-60 one-dose screen, 48 h; conditions: 10 µM unless noted
Compounds without any hit were thinned out: in the full panel of roughly 83,000, 20% have a hit. Active and inactive are the calls of the source. Rule for the calls: active = growth percent below 10; inactive = the rest.
Just give me one of these, please: true (1) = active, false (0) = inactive

Would you please look over these solved cases?
>  <COMPOUND>
Nc1ccccc1SC1CC(=O)N(c2cccc3ccccc23)C1=O (stereo not given)

>  <TEST TARGET>
SW-620 colon

>  <ASSIGNED LABEL>
false (0)

$$$$
>  <COMPOUND>
NCCSC(C[N+](=O)[O-])c1ccccc1Cl (stereo not given)

>  <TEST TARGET>
SW-620 colon

>  <ASSIGNED LABEL>
true (1)

$$$$
>  <COMPOUND>
CCCCCCCCCCCCOc1ccccc1C=O

>  <TEST TARGET>
SW-620 colon

>  <ASSIGNED LABEL>
false (0)

$$$$
>  <COMPOUND>
N#C/C(=C1C=C/C(=N/O)C(Br)=C/1)c1ccccc1

>  <TEST TARGET>
SW-620 colon

>  <ASSIGNED LABEL>
false (0)

$$$$
>  <COMPOUND>
CCC(=O)C(CC)c1cccc(OC)c1 (stereo not given)

>  <TEST TARGET>
SW-620 colon

>  <ASSIGNED LABEL>
false (0)

$$$$
>  <COMPOUND>
CN(Cc1ccccc1)Cc1ccccc1

>  <TEST TARGET>
SW-620 colon

>  <ASSIGNED LABEL>
false (0)

$$$$
>  <COMPOUND>
Oc1ccccc1C=NCC1CCC(CN=Cc2ccccc2O)CC1 (stereo not given)

>  <TEST TARGET>
SW-620 colon

>  <ASSIGNED LABEL>
false (0)

$$$$
>  <COMPOUND>
COc1ccc2ccccc2c1/C=N/N1CCCCC1

>  <TEST TARGET>
SW-620 colon

>  <ASSIGNED LABEL>
false (0)

$$$$
>  <COMPOUND>
O=C1c2ccccc2C(=O)N1/N=C/c1ccc2c(c1)OCO2

>  <TEST TARGET>
SW-620 colon

>  <ASSIGNED LABEL>
false (0)

$$$$
>  <COMPOUND>
c1ccc(N(c2ccccc2)c2ccccc2)cc1

>  <TEST TARGET>
SW-620 colon

>  <ASSIGNED LABEL>
false (0)

$$$$

Please find the next compound below.
Q: Recorded call for `O=C1CCN(Cc2ccccc2)C(=S)N1` ?
A: false (0)

###

tested on: OVCAR-8 ovarian; assay: NCI-60 one-dose screen, 48 h (100 = growth as untreated, 0 = no growth, -100 = all killed); settings: 10 µM
Compounds without any hit were thinned out: in the full panel of roughly 83,000, 20% have a hit.
growth: recorded values
Use % as the unit, but write only the number.

The examples below pair each entry with its known result.
>  <COMPOUND>
CC(C)(C)c1cc(NC(=O)Cc2ccc(-c3cnc4cc(-c5cnn(CCN6CCOCC6)c5)ccc4n3)cc2)no1

>  <growth / %>
18.6

$$$$
>  <COMPOUND>
CC#C[C@]1(O)CC[C@H]2[C@@H]3CCC4=CC(=O)CCC4=C3[C@@H](c3ccc4c(c3)OCO4)C[C@@]21C

>  <growth / %>
81.6

$$$$
>  <COMPOUND>
Cc1[nH]c(-c2nc3ccccc3[nH]2)c(C)c1C(=O)NC(C)C1CCCCC1 (centres undefined)

>  <growth / %>
96.9

$$$$

Q: So what does the record say about growth for `CNC(=O)c1cc(Oc2ccc(CC(=O)Nc3cc(C(C)(C)C)nn3C)cc2)ccn1` ?
A: 71.8

###

tested on: UACC-62 melanoma; assay: NCI-60 one-dose screen, 48 h; settings: 10 µM unless noted
About 83,000 compounds went through this panel and 20% of them were active in at least one assay; those are over-represented in the sample as a whole. The source made the active and inactive calls. Rule for the calls: active = growth percent below 10; inactive = the rest.
Allowed answers: Yes = active, No = inactive

>  <COMPOUND>
CC(=O)C(/C=N/C(N)=O)=C(/C)O

>  <ASSIGNED LABEL>
No

$$$$
>  <COMPOUND>
CCOc1ccc2cc(-c3nn(CC4CCNCC4)c4ncnc(N)c34)ccc2c1

>  <ASSIGNED LABEL>
No

$$$$
>  <COMPOUND>
CCC(=O)C(CC)c1cccc(OC)c1 (stereo not given)

>  <ASSIGNED LABEL>
No

$$$$

Q: Short answer needed: outcome of this test for `C1CCCCNCCC1` ?
A: No

Q: Now the same for O=C1c2c(O)cc(O)cc2OC(c2ccc(O)c(O)c2)C1O (stereo not given)
A: No

Q: Then this compound: C=C(C)C1CC2(C)C(C)CC(OC(=O)/C(C)=C\C)CC2C(OC(=O)/C(C)=C\C)C1O (stereo not given)
A: Yes

Q: Ok, now CC1OC23CCCCC2C(C#N)(C#N)C1(C#N)C(=N)O3 (stereo not given)
A: Yes

Q: Follow-up item: `CCOc1ccc2nc3cc(N)ccc3c(N)c2c1`
A: No

Q: // next record `Clc1nc(Oc2ccccc2)nc(-c2cn(-c3ccccc3)c3ccccc23)n1`
A: No

Q: Continue with `O=C=NC(c1ccccc1)(c1ccccc1)c1ccccc1`
A: No

Q: Queued: `Cc1ccc(-c2noc(CC(=O)c3ccc([N+](=O)[O-])cc3)n2)cc1`
A: No

Q: Same read-out for `C[N+](C)(C)CN1C(=O)c2ccccc2C1=O` ?
A: No

Q: // next record `O=[N+]([O-])c1ccc2nc3c4ccccc4c4ccccc4c3nc2c1`
A: No

Q: Query C=C(C)C(=O)OC1CC2(C)OC(=CC2=O)C(C)CC2OC(=O)C(=C)C12 (stereo not given) next
A: Yes

Q: And the next one, NS(=O)(=O)c1cc2c(cc1Cl)NC(C(Cl)Cl)NS2(=O)=O (stereo not given) ?
A: No

Q: Then this compound: `CC(C)Oc1ccc2cc(-c3nn(CC4CCNCC4)c4ncnc(N)c34)ccc2c1`
A: Yes

Q: Moving on to NCCSC(C[N+](=O)[O-])c1ccccc1Cl (stereo not given)
A: No

###

Catalogue of compounds with associated growth
test system: NCI-H322M lung; assay: NCI-60 one-dose screen, 48 h (100 = growth as untreated, 0 = no growth, -100 = all killed); details: 10 µM unless noted
About 83,000 compounds went through this panel and 20% of them were active in at least one assay; those are over-represented in the sample as a whole.
Unit % implied. Number only.

>  <COMPOUND>
C1CCCCNCCC1

>  <MEASUREMENT UNITS>
%

>  <growth>
111

$$$$
>  <COMPOUND>
O=C(CCc1ccc(O)cc1)N/N=C/c1cc(Br)ccc1O

>  <MEASUREMENT UNITS>
%

>  <growth>
38.9

$$$$
>  <COMPOUND>
Nc1ccccc1SC1CC(=O)N(c2cccc3ccccc23)C1=O (stereo not given)

>  <MEASUREMENT UNITS>
%

>  <growth>
97

$$$$
>  <COMPOUND>
O=C1c2c(O)cc(O)cc2OC(c2ccc(O)c(O)c2)C1O (stereo not given)

>  <MEASUREMENT UNITS>
%

>  <growth>
126

$$$$
>  <COMPOUND>
O=C=NC(c1ccccc1)(c1ccccc1)c1ccccc1

>  <MEASUREMENT UNITS>
%

>  <growth>
104

$$$$
>  <COMPOUND>
CC(/C=N/N1C(=O)c2ccccc2C1=O)c1ccccc1 (stereo not given)

>  <MEASUREMENT UNITS>
%

>  <growth>
98.1

$$$$
>  <COMPOUND>
S=C1SCN(Cc2ccccc2)CN1Cc1ccccc1

>  <MEASUREMENT UNITS>
%

>  <growth>
94.5

$$$$
>  <COMPOUND>
CCCCCCCCCCCCCCCCOc1ccc(C)cc1

>  <MEASUREMENT UNITS>
%

>  <growth>
111

$$$$
>  <COMPOUND>
Nc1ccc2ccc(N)cc2c1

>  <MEASUREMENT UNITS>
%

>  <growth>
69.1

$$$$
>  <COMPOUND>
O=C(O)c1cc(C(=O)O)cc([N+](=O)[O-])c1

>  <MEASUREMENT UNITS>
%

>  <growth>
105

$$$$

Q: growth for `CNC(=O)c1cccnc1` ?
A: 110

Q: Now try `N#C/C(=C/c1c(O)ccc2ccccc12)C(N)=O` .
A: 107

Q: Entry `CC12CCC(CC1)C(C)(C)O2` please
A: 101

Q: `COc1ccc(NC(=S)Nc2ccccn2)cc1` ?
A: 97

Q: Same question for `N#C/C(=C1C=C/C(=N/O)C(Br)=C/1)c1ccccc1` please.
A: 42.4
